assay: cytotoxicity in OVCAR8 ovarian cancer cells, dose response, PAX8 project, cell-based, plate reader, dry powder samples (AID 743197); details: series mostly up to 35 µM
Results with a measured potency or affinity are listed apart. Calls of active or inactive are those of the source. The rule behind the calls is not given here.
measured.attribute: outcome

> print(dat)
                                 mol.smiles    result
1  C[C@@H]1CCCCO[C@H](CN(C)S(=O)(=O)c2ccc(Cl)cc2)[C@@H](C)CN([C@@H](C)CO)C(=O)c2cc(NC(=O)CCC(F)(F)F)ccc2O1  inactive
2  COc1ccccc1-c1ccc2c(c1)O[C@H](CN(C)Cc1ccc3c(c1)OCO3)[C@H](C)CN([C@@H](C)CO)S2(=O)=O  inactive
3  O=C(C[C@H]1C[C@@H]2c3cc(NS(=O)(=O)c4ccc(F)cc4)ccc3O[C@@H]2[C@@H](CO)O1)NCc1ccc(Oc2ccccc2)cc1  inactive
